# Tested on: R275C
# Measurement description: modulators of BK channel variants, profiling panel, selectivity assay, cell-based, U2OS BacMam, thallium flux, beta subunits (AID 1259406);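 also: initial slope of Thallos dye fluorescence rise after thallium is added; log ratio against the mean of 0.3% DMSO vehicle wells on the same plate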
# Test conditions: at 30 µM
Field: label. Allowed values: condition met (log fold change Tl+ flux < 0.007) or condition not met (log fold change Tl+ flux >= 0.007).

I wonder whether `CS(=O)(=O)OCCCCOS(C)(=O)=O` has log fold change Tl+ flux below 0.007. Can you tell?
condition not met

`CN(C)CCCN1c2ccccc2Sc2ccc(Cl)cc21` ?
condition met

`Nc1ncn([C@@H]2O[C@H](CO)[C@@H](O)[C@H]2O)c(=O)n1` ?
condition not met

`Cc1ccc(-c2cc(C(F)(F)F)nn2-c2ccc(S(N)(=O)=O)cc2)cc1` ?
condition met

`S=c1nc[nH]c2nc[nH]c12` ?
condition met

`Clc1cccc(Cl)c1NC1=NCCN1` ?
condition met

Cc1ncc([N+](=O)[O-])n1CC(C)O (stereo not given) ?
condition met

`Cc1noc(NS(=O)(=O)c2ccc(N)cc2)c1C` ?
condition met

`O=C1NC(=O)C(c2ccccc2)(c2ccccc2)N1` ?
condition met

`Nc1nc(N)c2nc(-c3ccccc3)c(N)nc2n1` ?
condition met

`COc1ccc2c(c1)c(CC(=O)O)c(C)n2C(=O)c1ccc(Cl)cc1` ?
condition not met

`NC(N)=NC(=O)c1nc(Cl)c(N)nc1N` ?
condition met

CSc1ccc2c(c1)N(CCC1CCCCN1C)c1ccccc1S2 (stereo not given) ?
condition met

CC(COc1ccccc1)NC(C)C(O)c1ccc(O)cc1 (stereo not given) ?
condition not met

`CC(=O)[C@H]1CC[C@H]2[C@@H]3C[C@H](C)C4=CC(=O)CC[C@]4(C)[C@H]3[C@@H](O)C[C@]12C` ?
condition met

CN(C)CCOC(C)(c1ccccc1)c1ccccn1 (stereo not given) ?
condition met

`CC(=O)OCC[N+](C)(C)C` ?
condition met

`COc1ccccc1N1CCN(CCCNc2cc(=O)n(C)c(=O)n2C)CC1` ?
condition met

`C[C@H]1C[C@@H]2[C@H]([C@@H](O)C[C@@]3(C)[C@H]2CC[C@]3(O)C(=O)CO)[C@@]2(C)C=CC(=O)C=C12` ?
condition met

`NC12CC3CC(CC(C3)C1)C2` ?
condition met

`O=c1[nH]cc(F)c(=O)[nH]1` ?
condition met

`CC(C)[N+](C)(CCOC(=O)C1c2ccccc2Oc2ccccc21)C(C)C` ?
condition not met

NS(=O)(=O)c1cc2c(cc1C(F)(F)F)NC(Cc1ccccc1)NS2(=O)=O (stereo not given) ?
condition not met

`CN(C)CCN(Cc1ccccc1)c1ccccn1` ?
condition not met

###

# Measurement description: modulators of glucocorticoid suppression of NF-kB, cell-based, luciferase, IL-1B stimulus, dexamethasone (AID 624486);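 also: 100% = mean signal of vehicle control wells on the plate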
# Test conditions: NF-kB luciferase reporter, IL-1B + dexamethasone, luminescence; actives lie on both sides, concentration not given here
Kindly supply the reported percent of negative control (+Dex) values for the records listed here.
Report only the number, with the unit % understood.

For the molecule `CON=C(c1ccccc1)c1cnn(-c2ccccc2)c1N` , what percent of negative control (+Dex) is on record?
98.5

`c1ccc(-c2nc3n(c2-c2ccc4c(c2)OCO4)CCC3)nc1` ?
102

`CCS(=O)(=O)c1ccc(OC)c(Nc2ncc(-c3ccccc3Cl)o2)c1` ?
74.5

COCC(N=C1NC(=O)C(=Cc2ccc3ncccc3c2)S1)c1ccccc1 (stereo unspecified) ?
98

`Cn1cc(C2=C(c3cn(C)c4ccccc34)C(=O)NC2=O)c2ccccc21` ?
110

CC(O)CNc1cc(-c2[nH]c3cccnc3c2-c2ccc(F)cc2)ccn1 (stereo unspecified) ?
106

`Fc1ccc(-c2ncn(CCCN3CCOCC3)c2-c2ccncc2)cc1` ?
98.5

CNCC1CCn2c(c(C3=C(c4cn(C)c5ccccc45)C(=O)NC3=O)c3ccccc32)C1 (stereo unspecified) ?
94.5

`COc1ccc(-c2oc3ncnc(N)c3c2-c2ccc(NC(=O)Nc3cc(C(F)(F)F)ccc3F)cc2)cc1` ?
93.5

`CS(=O)(=O)CCCn1c(=O)c(Oc2ccc(F)cc2F)cc2cnc(NC3CCOCC3)nc21` ?
101

`Cn1cc(C2=C(c3cn(CCCCN)c4ccccc34)C(=O)NC2=O)c2ccccc21` ?
98.5

`Cn1cc(C2=C(c3cn(C)c4ccc(N)cc34)C(=O)NC2=O)c2ccccc21` ?
98

CC(=O)NC(Cc1ccc(OP(=O)(O)O)cc1)C(=O)NC1CCC(=O)N2CCCC(C(=O)NCc3ccc(Cl)cc3)N2C1=O (stereo unspecified) ?
95.5

`COc1ccc(-c2nn3ncccc3c2-c2ccnc(Nc3ccc(Cl)c(C(F)(F)F)c3)n2)cc1` ?
98

`O=C1NC(=NCCc2cccs2)SC1=Cc1ccc2ncccc2c1` ?
96

`O=C1NC(=O)C(c2cccc(Cl)c2)=C1Nc1ccc(Cl)c(C(=O)O)c1` ?
96.5

`Fc1ccc(-c2ncn(C3CCNCC3)c2-c2ccnc(Oc3cccc(F)c3)n2)cc1` ?
111

`CC1(C)CC(n2cnc(-c3ccc(F)cc3)c2-c2ccnc(N)n2)CC(C)(C)N1` ?
110

`CN(C)CCCNc1nccc(-c2c(-c3ccc(F)cc3)nn3cc(C(F)(F)F)ccc23)n1` ?
93.5

`Cn1cc(C2=C(c3ccccc3)C(=O)NC2=O)c2ccccc21` ?
96

`Cc1c2ccc(N(C)c3ccnc(Nc4cccc(S(N)(=O)=O)c4)n3)cc2nn1C` ?
94

`O=c1c(Oc2ccc(F)cc2F)cc2cnc(NC3CCOCC3)nc2n1C1CC1` ?
92.5

`OCc1ccc(-c2nc(-c3ccc4c(c3)OCO4)c(-c3ccccn3)[nH]2)cc1` ?
106

`CN(C)c1cc2c(Nc3ccc4c(cnn4Cc4ccccc4)c3)ncnc2cn1` ?
68

`COc1ccc(C2=C(c3cn(C)c4ccccc34)C(=O)NC2=O)cc1OC` ?
100

`O=[N+]([O-])c1ccc2c(c1)C(c1ccccc1Cl)=Nc1c(n[nH]c1-c1cccnc1)N2` ?
102

`CCOc1ccc2c(-c3ccnc(Nc4cc(OC)cc(C(F)(F)F)c4)n3)cnn2n1` ?
86.5

`c1cc(-c2cnn3nc(N4CCOCC4)ccc23)nc(NC2CC2)n1` ?
59.5

`Cc1cc(O)cc(C)c1/C=C/c1cncc(C(=O)OC(C)(C)C)c1` ?
100

`Fc1ccc(-c2c(-c3ccncc3)[nH]c3cccnc23)cc1` ?
95

`Cc1ccc(C(=O)NC2CC2)cc1-c1ccc2[nH]ncc2c1` ?
102

`COc1ccc(C2=C(c3cn(C)c4ccccc34)C(=O)NC2=O)cc1` ?
108

`Cn1c(=O)c(Oc2ccccc2)cc2cnc(NC3CCOCC3)nc21` ?
105

`COc1cc(C)c(N(C)C(=O)CN(C)C)cc1Nc1nc(Nc2cccc(F)c2C(N)=O)c2cc[nH]c2n1` ?
110

`CCN1CCC(CC(=O)Nc2n[nH]c3nc(-c4cccs4)c(Br)cc23)CC1` ?
88

`COc1ccc(-c2ccc3c(NC(=O)C4CC4)n[nH]c3n2)cc1` ?
130

`Cn1cc(C2=C(c3cccc(N)c3)C(=O)NC2=O)c2ccccc21` ?
124

`N#Cc1c(NC(=O)c2ccccc2F)sc2c1CCCC2` ?
282

`Clc1ccc(CNc2nccc(-c3cnn4ncccc34)n2)cc1` ?
26.5

`Cn1cc(C2=C(c3cn(C)c4cc(C(=O)O)ccc34)C(=O)NC2=O)c2ccccc21` ?
99

`CC(C)(CO)CNC(=O)c1ccc2[nH]c(O)c(N=Nc3ccc(S(N)(=O)=O)cc3)c2c1` ?
93

###

Kindly supply the reported inhibition values for the records listed here.
# Measurement description: growth inhibition of CRL1545 osteosarcoma cells, cell-based, cisplatin and BGB IC20 combos (AID 1671464);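 also: cells exposed to compound for 96 hours before readout; 0% = vehicle DMSO and 100% = high DMSO killing control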
# Test conditions: at 0.5 µM, stronger effect = higher value
Report only the number, with the unit % understood.

For the molecule `O=C1c2c(O)ccc(O)c2C(=O)c2c(NCCNCCO)ccc(NCCNCCO)c21` , what inhibition is on record?
65.5

`CCn1cc(C(=O)O)c(=O)c2cc(F)c(N3CCNCC3)cc21` ?
-19.2

`O=C(O)CCCc1ccccc1` ?
-23.7

CCN(CC)CCCC(C)Nc1c2ccc(Cl)cc2nc2ccc(OC)cc12 (stereo not given) ?
9.17

`CC(=O)OCC(CCn1cnc2cnc(N)nc21)COC(C)=O` ?
-2.74

###

# Measurement description: Cy5 fluorescence quenching or enhancement artefacts, artefact control for HCV NS3 helicase inhibitor project, biochemical, LOPAC1280 (AID 687037)
# Test conditions: Cy5-DNA-NS3h complex fluorescence interference counterscreen
Kindly supply the reported fluorescence ratio (interference) values for the records listed here.
No unit in the answer, only the number.

For the compound `CCCN1C[C@H](CSC)C[C@@H]2c3cccc4[nH]cc(c34)C[C@H]21` , what fluorescence ratio (interference) is on record?
1

`CN(C)CCCN1c2ccccc2CCc2ccc(Cl)cc21` ?
1

CCOC(=O)C1=C(C)NC(C)=C(C(=O)OC)C1c1cccc([N+](=O)[O-])c1 (centres undefined) ?
0.9

`COc1ccccc1N1CCN(CCCNc2cc(=O)n(C)c(=O)n2C)CC1` ?
1

`OCCN1CCN(CCCN2c3ccccc3Sc3ccc(C(F)(F)F)cc32)CC1` ?
0.9

OC(CCN1CCCCC1)(c1ccccc1)C1CCCCC1 (centres undefined) ?
1

COCCOC(=O)C1=C(C)NC(C)=C(C(=O)OC(C)C)C1c1cccc([N+](=O)[O-])c1 (centres undefined) ?
0.9

`Nc1nc2c(ncn2COCCO)c(=O)[nH]1` ?
1

`NS(=O)(=O)c1cc2c(cc1Cl)NC=NS2(=O)=O` ?
0.9

`CC(=O)CCCCn1c(=O)c2c(ncn2C)n(C)c1=O` ?
1

`Fc1ccc([C@@H]2CCNC[C@H]2COc2ccc3c(c2)OCO3)cc1` ?
0.9

`CNC(=O)Oc1ccc2c(c1)[C@]1(C)CCN(C)[C@@H]1N2C` ?
1

`N[C@@H]1CONC1=O` ?
0.9

`OCCN1CCN(CCCN2c3ccccc3Sc3ccc(Cl)cc32)CC1` ?
1

CC1COc2c(N3CCN(C)CC3)c(F)cc3c(=O)c(C(=O)O)cn1c23 (centres undefined) ?
0.9

CCN(CC)CCCC(C)Nc1ccnc2cc(Cl)ccc12 (centres undefined) ?
1

CCN(Cc1ccncc1)C(=O)C(CO)c1ccccc1 (centres undefined) ?
0.9

`Clc1cccc(Cl)c1NC1=NCCN1` ?
1

`NC12CC3CC(CC(C3)C1)C2` ?
0.9

`CC(C)C(=O)Nc1ccc([N+](=O)[O-])c(C(F)(F)F)c1` ?
1

`CCN(CC)C(=S)SSC(=S)N(CC)CC` ?
1

`CCN(CC)CCOC(=O)C1(C2CCCCC2)CCCCC1` ?
1

`CC(=O)OCC(=O)[C@@]1(O)CC[C@H]2[C@@H]3CCC4=CC(=O)CC[C@]4(C)[C@H]3C(=O)C[C@@]21C` ?
0.9

`Cn1c(=O)c2[nH]cnc2n(C)c1=O` ?
0.9
